Target: T1, rat NPRA (rat, UniProt P18910 29-1057)
T1 sequence (looked up): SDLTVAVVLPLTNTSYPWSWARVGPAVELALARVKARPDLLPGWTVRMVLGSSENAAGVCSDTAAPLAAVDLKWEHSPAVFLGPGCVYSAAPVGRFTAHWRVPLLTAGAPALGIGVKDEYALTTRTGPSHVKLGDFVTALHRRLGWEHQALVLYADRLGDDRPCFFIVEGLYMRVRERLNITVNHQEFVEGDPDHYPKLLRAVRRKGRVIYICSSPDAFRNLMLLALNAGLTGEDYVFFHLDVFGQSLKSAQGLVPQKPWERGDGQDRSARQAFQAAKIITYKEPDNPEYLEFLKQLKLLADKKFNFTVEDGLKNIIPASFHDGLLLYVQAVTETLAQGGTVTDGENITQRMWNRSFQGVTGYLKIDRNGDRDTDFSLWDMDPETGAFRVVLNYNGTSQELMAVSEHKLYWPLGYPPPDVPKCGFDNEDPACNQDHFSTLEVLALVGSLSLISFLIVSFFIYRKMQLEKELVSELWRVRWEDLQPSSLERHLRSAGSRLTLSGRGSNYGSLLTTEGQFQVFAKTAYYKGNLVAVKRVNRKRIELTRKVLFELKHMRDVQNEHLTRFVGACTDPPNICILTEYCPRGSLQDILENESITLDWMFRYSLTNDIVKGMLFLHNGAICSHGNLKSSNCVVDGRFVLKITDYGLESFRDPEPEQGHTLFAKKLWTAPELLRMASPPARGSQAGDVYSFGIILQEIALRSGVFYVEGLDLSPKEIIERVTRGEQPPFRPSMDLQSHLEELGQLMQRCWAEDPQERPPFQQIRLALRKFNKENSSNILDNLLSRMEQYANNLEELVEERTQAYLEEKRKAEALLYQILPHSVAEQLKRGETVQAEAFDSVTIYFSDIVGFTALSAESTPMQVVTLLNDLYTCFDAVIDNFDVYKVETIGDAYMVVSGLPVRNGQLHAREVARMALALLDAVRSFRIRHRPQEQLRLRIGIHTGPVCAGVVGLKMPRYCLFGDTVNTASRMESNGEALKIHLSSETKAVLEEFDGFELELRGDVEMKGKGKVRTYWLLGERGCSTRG
Experiment: cell-based or functional assay
Numbered stars: 1 amine (or outer) side, 2 acyl side, 3 side chain; on linkers, the order of the positions; unused ones are H or OH. Bridge positions count the residues as written; N and C are the ends. Square brackets hold non-standard residues; d marks the D form. * marks the point of attachment. thioacetal = thioacetal linkage between two cysteines (intrachain bond at the bracketed Cys); C20 diacid = O=C(O)CCCCCCCCCCCCCCCCCCC(=O)*; γGlu = O=C(O)[C@H](CCC(=O)[*:2])N[*:1]; 4Pal = N[C@@H](Cc1ccncc1)C(=O)O; Aib = CC(C)(N)C(=O)O; βAla = NCCC(=O)O
Assay endpoint: cGMP Assay (EC50, pM) w/BSA
The reply should contain only the number, in pM.

Record summary for EKXRSSCFGKRIDRIGHQSGLGCPSFRHGGKSSGAPPPS (HOOC-(CH2)18-CO-(γGlu)-EKEKEKG-(AEEA)4-EK-βAla-RSS[CFGKRIDRIGHQSGLGC]PSFRHGGKSSGAPPPS-NH2; thioacetal linkage between the bracketed Cys) [Example 88] : reported cGMP Assay (EC50, pM) w/BSA = 1.05e+06

Record summary for {C20 diacid}-[γGlu]EKEKEKGKE[βAla]RSSCFGGRIDRIGHYSGLGCPSFRHGGPSSGAPPPS-NH2 (bridge 15-31 via thioacetal) [Example 58] : reported cGMP Assay (EC50, pM) w/BSA = 1.38e+06

Record summary for {C20 diacid}-[γGlu]EKEKEKGS[4Pal]KRSSCFGGKIDRIGHQSGLGCPSFRHKITAKEDE-NH2 (disulfide 15-31) [Example 34] : reported cGMP Assay (EC50, pM) w/BSA = 422000

Record summary for SXRRSSCFGGRIDRIGHQSGLGCPSFRHGGKSSGAPPPS (HOOC-(CH2)18-CO-(γGlu)-EKEKEKG-(AEEA)6-S-4Pal-RRSS[CFGGRIDRIGHQSGLGC]PSFRHGGKSSGAPPPS-NH2; thioacetal linkage between the bracketed Cys) [Example 86] : reported cGMP Assay (EC50, pM) w/BSA = 868000

Record summary for {C20 diacid}-[γGlu]EKEKEKGS[4Pal]RRSSCFGGRIDRIGHQSGLGCPSFRHGGPPS[Aib]KPPPK-NH2 (bridge 15-31 via thioacetal) [Example 71] : reported cGMP Assay (EC50, pM) w/BSA = 594000
